Quick reference for MIC among some compounds
- Test system: Malassezia furfur (CBS 7982)
- Protocol Description: In vitro evaluation of antifungal potency (MIC)
- Format: cell-based
- Conditions Used: Malassezia furfur, CBS7982; M. furfur CBS 7982, mDixon medium, 31° C., approximately 72 hours, absorbance at 600 nm
Response body: numeric value in µg/mL, unit text excluded.

Sample answers from the record:
smiles_string=CO/N=C(/C1=NOCCO1)c1ccccc1Oc1ncnc(Oc2ccccc2Cl)c1F observation_type=MIC value=3.91
smiles_string=COC(=O)N(OC)c1ccccc1COc1ccn(-c2ccc(Cl)cc2)n1 observation_type=MIC value=1.95
smiles_string=CO/N=C(/C(=O)OC)c1ccccc1COc1ccccc1C observation_type=MIC value=15.6

In plain terms, CON=C(C(=O)OC)c1ccccc1CON=C(C)c1cccc(C(F)(F)F)c1 has a documented MIC of 15.6
